So I've got a bunch of compounds here, and I need their IC50 values.
System: K562
Test Method Notes: K562 assay, in vitro cytotoxicity of PBD payloads (MTS, 4 days)
Format: cell-based
Study Conditions: Homo sapiens, K562, 96 h; 4 days incubation, mean of three independent replicates
Answer by giving the amount and then stating its unit.

// returns reported IC50 for input COC(=O)c1cc(COc2cc3c(cc2OC)C(=O)N2C=C(C)C[C@H]2C=N3)cc(COc2cc3c(cc2OC)C(=O)N2C=C(C)C[C@H]2C=N3)c1 [Compound 47]
0.162 nM

Continue with COc1cc2c(cc1OCc1cc(COc3cc4c(cc3OC)C(=O)N3C=C(C)C[C@H]3C=N4)cc(C(=O)O)c1)N=C[C@@H]1CC(C)=CN1C2=O [Compound 49]
1.84 nM
